Just for reference, PubChem BioAssay AID1159580 is where these values come from.

Experiment: chemical genetic growth profiling, strain panel (AID 1159580);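 further: tested at 20 µM; growth read once vehicle control cultures reached saturation at 30 °C; 1 = growth at the plate median or of vehicle wells; lower values mean less growth of the strain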
Details: S. cerevisiae deletion strains, growth OD, locus YDR150W, strain NUM1, active compounds read low
Screen size: about 5,500 compounds; about 2,000 (36%) were called active. About 18% were inconclusive and are not listed. This is one part of the list.
What normalized growth was measured for each of the following?
One number for each entry.

See these solved cases before continuing.
Input: // query normalized growth value for entry "COc1ccc(C(=O)CC(=O)c2ccc(C(C)(C)C)cc2)cc1"
Output: 0.999

Input: // query normalized growth value for entry "Cc1nc2sccn2c(=O)c1CCN1CCC(=C(c2ccccc2)c2ccc(F)cc2)CC1"
Output: 0.995

Input: // query normalized growth value for entry "NNCCc1ccccc1"
Output: 0.996

Would you mind listing normalized growth for each of the following compounds?
1. COc1ccc(CCNC(=S)NCCc2ccc(OC)c(OC)c2)cc1OC
2. C[C@]12C=CC(=O)C=C1CCC1C3C[C@@H](O)[C@](O)(C(=O)CO)[C@@]3(C)C[C@H](O)[C@@]12F (some centres not stated)
3. N#Cc1csc([N+](=O)[O-])c1
4. Cc1cc(NS(=O)(=O)c2ccc(NS(=O)(=O)c3ccc(Cl)cc3)cc2)no1
5. CCN(CCCc1ccccc1)CCCc1ccccc1
6. O=C(O)Cc1cc(I)c(Oc2cc(I)c(O)c(I)c2)c(I)c1
7. C[C@H](N)[C@H](O)c1ccccc1
8. CCCCN1CCC(COC(=O)c2cc(Cl)c(N)c3c2OCCO3)CC1

Output:
1. 0.985
2. 1.02
3. 0.885
4. 0.956
5. 1
6. 0.943
7. 1.01
8. 0.997

Input: // query normalized growth value for entry CCCCCC1C(=O)CCC1CC(=O)OC (configuration not stated)
Output: 0.975
